Where do the numbers come from? From patent US20240226228A1.

# Test system: red blood cells
# ASSAY: Hemolysis assay
# Assay type: cell-based, Sprague-Dawley mouse
Where a SMILES comes first, the peptide text is derived from it. [ ]: non-standard residue; d: D form. Gly(N(CH2)2(3-indolyl)) = O=C(O)CNCCc1c[nH]c2ccccc12; Nspe = C[C@H](NCC(=O)O)c1ccccc1; Nphe = O=C(O)CNCc1ccccc1; Nlys = NCCCCNCC(=O)O
Recorded Hmax (100 μM) by entry
Answer format reminder: number followed by unit.

Exam item: # query: Hmax (100 μM) of entry C[C@@H](c1ccccc1)N(CC(=O)N(CCCCN)CC(=O)N(CCc1c[nH]c2ccccc12)CC(=O)N(CCc1c[nH]c2ccccc12)CC(N)=O)C(=O)CN(CCCCN)C(=O)CN(CCCCN)C(=O)CN(Cc1ccccc1)C(=O)CN(Cc1ccccc1)C(=O)CN(CCCCN)C(=O)CN(C(=O)CN(C(=O)CNCCCCN)[C@@H](C)c1ccccc1)[C@@H](C)c1ccccc1 [Peptoid 40] (H-[Nlys][Nspe][Nspe][Nlys][Nphe][Nphe][Nlys][Nlys][Nspe][Nlys][Gly(N(CH2)2(3-indolyl))][Gly(N(CH2)2(3-indolyl))]-NH2)
Marked response: 8.9 ± 0.2%

Exam item: What do you get for C[C@@H](c1ccccc1)N(CC(=O)N(CCCCN)CC(=O)N(CCc1c[nH]c2ccccc12)CC(=O)N(CCc1c[nH]c2ccccc12)CC(N)=O)C(=O)CN(CCCCN)C(=O)CN(CCCCN)C(=O)CN(C(=O)CN(C(=O)CN(CCCCN)C(=O)CN(C(=O)CN(C(=O)CNCCCCN)[C@@H](C)c1ccccc1)[C@@H](C)c1ccccc1)[C@@H](C)c1ccccc1)[C@@H](C)c1ccccc1 [Peptoid 29-2] (H-[Nlys][Nspe][Nspe][Nlys][Nspe][Nspe][Nlys][Nlys][Nspe][Nlys][Gly(N(CH2)2(3-indolyl))][Gly(N(CH2)2(3-indolyl))]-NH2) ?
Marked response: 5.2 ± 0.2%

Exam item: What do you get for NCCCCNCC(=O)N(CC(=O)N(CC(=O)N(CCCCN)CC(=O)N(CC(=O)N(CC(=O)N(CCCCN)CC(=O)N(CC(=O)N(CC(=O)N(CCCCN)CC(=O)N(CC(=O)N(CC(N)=O)Cc1ccccc1)Cc1ccccc1)Cc1ccccc1)Cc1ccccc1)Cc1ccccc1)Cc1ccccc1)Cc1ccccc1)Cc1ccccc1 [Peptoid 2] (H-[Nlys][Nphe][Nphe][Nlys][Nphe][Nphe][Nlys][Nphe][Nphe][Nlys][Nphe][Nphe]-NH2) ?
Marked response: 17.7 ± 1.1%

Exam item: What do you get for C[C@@H](c1ccccc1)N(CC(=O)N(CCCCN)CC(=O)N(CC(=O)N(CC(=O)N(CCCCN)CC(=O)N(CC(=O)N(CC(=O)N(CCCCN)CC(N)=O)[C@@H](C)c1ccccc1)[C@@H](C)c1ccccc1)[C@@H](C)c1ccccc1)[C@@H](C)c1ccccc1)C(=O)CN(C(=O)CN(CCCCN)C(=O)CN(CCc1c[nH]c2ccccc12)C(=O)CNCCc1c[nH]c2ccccc12)[C@@H](C)c1ccccc1 [Peptoid 37-2] (H-[Gly(N(CH2)2(3-indolyl))][Gly(N(CH2)2(3-indolyl))][Nlys][Nspe][Nspe][Nlys][Nspe][Nspe][Nlys][Nspe][Nspe][Nlys]-NH2) ?
Marked response: 98.9 ± 8.0%

Exam item: What do you get for C[C@@H](c1ccccc1)N(CC(N)=O)C(=O)CN(C(=O)CN(CCCCN)C(=O)CN(C(=O)CN(CCCCN)C(=O)CN(CCCCN)C(=O)CN(C(=O)CN(C(=O)CN(CCCCN)C(=O)CN(CCc1c[nH]c2ccccc12)C(=O)CN(CCc1c[nH]c2ccccc12)C(=O)CNCCCCN)[C@@H](C)c1ccccc1)[C@@H](C)c1ccccc1)[C@@H](C)c1ccccc1)[C@@H](C)c1ccccc1 ?
Marked response: 5.0 ± 0.2%

Exam item: What do you get for C[C@@H](c1ccccc1)N(CC(=O)N(CCCCN)CC(=O)N(CC(=O)N(CC(=O)N(CCCCN)CC(=O)N(CC(=O)N(CC(=O)N(CCCCN)CC(=O)N(CC(=O)N(CCc1c[nH]c2ccccc12)CC(N)=O)[C@@H](C)c1ccccc1)[C@@H](C)c1ccccc1)[C@@H](C)c1ccccc1)[C@@H](C)c1ccccc1)[C@@H](C)c1ccccc1)C(=O)CN(CCc1c[nH]c2ccccc12)C(=O)CNCCCCN [Peptoid 17] (H-[Nlys][Gly(N(CH2)2(3-indolyl))][Nspe][Nlys][Nspe][Nspe][Nlys][Nspe][Nspe][Nlys][Nspe][Gly(N(CH2)2(3-indolyl))]-NH2) ?
Marked response: 87.3 ± 6.7%

Exam item: What do you get for C[C@@H](c1ccccc1)N(CC(N)=O)C(=O)CN(C(=O)CN(CCCCN)C(=O)CN(C(=O)CN(CCc1c[nH]c2ccccc12)C(=O)CN(CCCCN)C(=O)CN(CCc1c[nH]c2ccccc12)C(=O)CN(C(=O)CN(CCCCN)C(=O)CN(C(=O)CN(C(=O)CNCCCCN)[C@@H](C)c1ccccc1)[C@@H](C)c1ccccc1)[C@@H](C)c1ccccc1)[C@@H](C)c1ccccc1)[C@@H](C)c1ccccc1 [Peptoid 15-2] ?
Marked response: 34.1 ± 1.1%

Exam item: What do you get for C[C@@H](c1ccccc1)N(CC(=O)N(CCCCN)CC(=O)N(CCc1c[nH]c2ccccc12)CC(=O)N(CCc1c[nH]c2ccccc12)CC(N)=O)C(=O)CN(CCCCN)C(=O)CN(CCCCN)C(=O)CN(C(=O)CN(C(=O)CN(CCCCN)C(=O)CN(C(=O)CN(C(=O)CNCCCCN)[C@@H](C)c1ccccc1)[C@@H](C)c1ccccc1)[C@@H](C)c1ccccc1)[C@@H](C)c1ccccc1 [Peptoid 29-1] (H-[Nlys][Nspe][Nspe][Nlys][Nspe][Nspe][Nlys][Nlys][Nspe][Nlys][Gly(N(CH2)2(3-indolyl))][Gly(N(CH2)2(3-indolyl))]-NH2) ?
Marked response: 4.3 ± 0.3%

Below: the item to evaluate.
Exam item: # query: Hmax (100 μM) of entry C[C@@H](c1ccccc1)N(CC(N)=O)C(=O)CN(C(=O)CN(CCCCN)C(=O)CN(C(=O)CN(C(=O)CN(CCCCN)C(=O)CN(CCc1c[nH]c2ccccc12)C(=O)CN(CCc1c[nH]c2ccccc12)C(=O)CN(CCCCN)C(=O)CN(CCc1c[nH]c2ccccc12)C(=O)CN(CCc1c[nH]c2ccccc12)C(=O)CNCCCCN)[C@@H](C)c1ccccc1)[C@@H](C)c1ccccc1)[C@@H](C)c1ccccc1
Marked response: 83.7 ± 2.0%

----------
# System: red blood cells
# ASSAY: Hemolysis assay
# Type: cell-based, Sprague-Dawley mouse
Where a SMILES comes first, the peptide text is derived from it. [ ]: non-standard residue; d: D form. Gly(N(CH2)2(3-indolyl)) = O=C(O)CNCCc1c[nH]c2ccccc12; Nspe = C[C@H](NCC(=O)O)c1ccccc1; Nphe = O=C(O)CNCc1ccccc1; Nlys = NCCCCNCC(=O)O
Recorded Hmax (100 μM) by entry
Write down the numeric answer in % and omit the unit.

// known answers, use as guide
Exam item: Provide value of Hmax (100 μM) for this record tested with red blood cells: C[C@@H](c1ccccc1)N(CC(N)=O)C(=O)CN(C(=O)CN(CCCCN)C(=O)CN(CCc1c[nH]c2ccccc12)C(=O)CN(CCc1c[nH]c2ccccc12)C(=O)CN(CCCCN)C(=O)CN(C(=O)CN(C(=O)CN(CCCCN)C(=O)CN(C(=O)CN(C(=O)CNCCCCN)[C@@H](C)c1ccccc1)[C@@H](C)c1ccccc1)[C@@H](C)c1ccccc1)[C@@H](C)c1ccccc1)[C@@H](C)c1ccccc1
Marked response: 87.4

Exam item: What do you get for C[C@@H](c1ccccc1)N(CC(=O)N(CCCCN)CC(=O)N(CC(=O)N(CC(=O)N(CCCCN)CC(=O)N(CC(=O)N(CC(=O)N(CCCCN)CC(=O)N(CC(=O)N(CC(N)=O)Cc1ccccc1)Cc1ccccc1)[C@@H](C)c1ccccc1)[C@@H](C)c1ccccc1)[C@@H](C)c1ccccc1)[C@@H](C)c1ccccc1)C(=O)CN(C(=O)CNCCCCN)[C@@H](C)c1ccccc1 [Peptoid 44] (H-[Nlys][Nspe][Nspe][Nlys][Nspe][Nspe][Nlys][Nspe][Nspe][Nlys][Nphe][Nphe]-NH2) ?
Marked response: 97.9

Exam item: What do you get for C[C@@H](c1ccccc1)N(CC(=O)N(CCCCN)CC(=O)N(CC(=O)N(CC(=O)N(CCCCN)CC(=O)N(CC(=O)N(CC(=O)N(CCCCN)CC(=O)N(CCc1c[nH]c2ccccc12)CC(=O)N(CCc1c[nH]c2ccccc12)CC(N)=O)[C@@H](C)c1ccccc1)[C@@H](C)c1ccccc1)[C@@H](C)c1ccccc1)[C@@H](C)c1ccccc1)C(=O)CN(C(=O)CNCCCCN)[C@@H](C)c1ccccc1 [Peptoid 11-1] (H-[Nlys][Nspe][Nspe][Nlys][Nspe][Nspe][Nlys][Nspe][Nspe][Nlys][Gly(N(CH2)2(3-indolyl))][Gly(N(CH2)2(3-indolyl))]-NH2) ?
Marked response: 113.9

Exam item: What do you get for C[C@@H](c1ccccc1)N(CC(=O)N(CCCCN)CC(=O)N(CC(=O)N(CC(N)=O)Cc1ccccc1)Cc1ccccc1)C(=O)CN(CCCCN)C(=O)CN(CCCCN)C(=O)CN(C(=O)CN(C(=O)CN(CCCCN)C(=O)CN(C(=O)CN(C(=O)CNCCCCN)[C@@H](C)c1ccccc1)[C@@H](C)c1ccccc1)[C@@H](C)c1ccccc1)[C@@H](C)c1ccccc1 [Peptoid 45] (H-[Nlys][Nspe][Nspe][Nlys][Nspe][Nspe][Nlys][Nlys][Nspe][Nlys][Nphe][Nphe]-NH2) ?
Marked response: 4.5

Next:
Exam item: Provide value of Hmax (100 μM) for this record tested with red blood cells: C[C@@H](c1ccccc1)N(CC(=O)N(CCCCN)CC(=O)N(CC(=O)N(CC(=O)N(CCCCN)CC(=O)N(CC(=O)N(CC(=O)N(CCCCN)CC(=O)N(CC(=O)N(CC(=O)N(CCCCN)CC(=O)N(CCCCN)CC(N)=O)[C@@H](C)c1ccccc1)[C@@H](C)c1ccccc1)[C@@H](C)c1ccccc1)[C@@H](C)c1ccccc1)[C@@H](C)c1ccccc1)[C@@H](C)c1ccccc1)C(=O)CNCCc1c[nH]c2ccccc12 [Peptoid 64] (H-[Gly(N(CH2)2(3-indolyl))][Nspe][Nlys][Nspe][Nspe][Nlys][Nspe][Nspe][Nlys][Nspe][Nspe][Nlys][Nlys]-NH2)
Marked response: 18.9
